system: BUB1; settings: concentration: 1 μM, replicates: in singlicate; n = 1;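 further: KINOMEscan kinase panel screen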

- molecule: "COc1cc(Nc2nccc(N3CCC(NC(=O)Nc4cc(C)ccc4C)C3)n2)cc(OC)c1OC (stereo not shown) [GSK1379762]"
  %Inh [%]: 26
- molecule: "COc1ccccc1-c1ccc2c(NC(=O)C3CC3)n[nH]c2n1 [SB-711239]"
  %Inh [%]: 11
- molecule: "COc1ccc(Nc2nccc(NCCNC(=O)Nc3ccccc3F)n2)cc1 [GSK1379901]"
  %Inh [%]: 53
- molecule: "O=C(Nc1n[nH]c2nc(-c3nccs3)c(Br)cc12)C1CCCC1 [SB-742609]"
  %Inh [%]: 37

Cited source: paper PMC5540273
